This collection of values is drawn from paper PMC7287874.

Test system: GR wild type (xpt-pbuX guanine riboswitch aptamer) (RNA, riboswitch) GGACAUAUAAUCGCGUGGAUAUGGCACGCAAGUUUCUACCGGGCACCGUAAAUGUCCGACUAUGUCCA
EXPERIMENT_SUMMARY: ITC
PROTOCOL_CONDITIONS: 100 mM KCl, 20 mM MgCl2, 50 mM K-HEPES; pH 7.5, 25 °C, single-site fit
Category scheme (KD): lower level = under 10 nM, middle level = from 10 nM up to 300 nM, upper level = 300 nM and over

{"QUERY_SMILES": "O=C(COc1ccccc1)Nc1nc2[nH]cnc2c(=O)[nH]1", "ASSIGNED_LABEL": "lower level"}
{"QUERY_SMILES": "NS(=O)(=O)c1ccc(Nc2nc(OCC3CCCCC3)c3nc[nH]c3n2)cc1", "ASSIGNED_LABEL": "upper level"}
{"QUERY_SMILES": "Nc1nc2[nH]c(N)nc2c(=O)[nH]1", "ASSIGNED_LABEL": "middle level"}
{"QUERY_SMILES": "Nc1nc(Cl)c2[nH]cnc2n1", "ASSIGNED_LABEL": "upper level"}
{"QUERY_SMILES": "O=c1[nH]cnc2nc[nH]c12", "ASSIGNED_LABEL": "middle level"}
{"QUERY_SMILES": "COc1nc(N)nc2[nH]cnc12", "ASSIGNED_LABEL": "upper level"}
{"QUERY_SMILES": "Nc1nc2[nH]cnc2c(=O)[nH]1", "ASSIGNED_LABEL": "lower level"}
{"QUERY_SMILES": "CC(C)C(=O)Nc1nc2[nH]cnc2c(=O)[nH]1", "ASSIGNED_LABEL": "lower level"}
